assay: First in human single ascending dose and food effect PK study of JOTROL, plasma; settings: both, human, plasma, po, 700 mg, Kel, resveratrol in plasma, mean; Treatment C: JOTROL 700 mg single oral dose, fasting
recorded_endpoint: k el (s⁻¹)
Just the number please, in s⁻¹, no unit attached.

Input line: Which k el is listed for `Oc1ccc(/C=C/c2cc(O)cc(O)c2)cc1` ?
Output line: 0.000126

====

assay: First in human single ascending dose and food effect PK study of JOTROL, plasma; conditions: both, human, plasma, po, 700 mg, AUC0-inf, resveratrol in plasma, mean; Treatment C: JOTROL 700 mg single oral dose, fasting
recorded_endpoint: AUC(0-inf) (ng·h/mL)
Just the number please, in ng·h/mL, no unit attached.

Input line: Which AUC(0-inf) is listed for `Oc1ccc(/C=C/c2cc(O)cc(O)c2)cc1` ?
Output line: 611

====

Assay: First in human single ascending dose and food effect PK study of JOTROL, plasma
Conditions: both, human, plasma, po, 700 mg, T1/2 el, resveratrol in plasma, mean; Treatment C: JOTROL 700 mg single oral dose, fasting
Text: A total of 24 healthy, adult male or female volunteers were included in study part 1. […] A food effect arm was also included as part 2. […] Samples are extracted by a protein precipitation extraction procedure, and the compounds are detected and quantified by tandem mass spectrometry in positive ion mode on an MDS Sciex API 6500+ equipped with a Turbo Ionspray® interface. […]
recorded_endpoint: half-life (h)
Just the number please, in h, no unit attached.

Input line: Which half-life is listed for `Oc1ccc(/C=C/c2cc(O)cc(O)c2)cc1` ?
Output line: 1.6

====

experiment: First in human single ascending dose and food effect PK study of JOTROL, plasma; settings: both, human, plasma, po, 500 mg, AUC0-t, resveratrol in plasma, mean; Treatment B: JOTROL 500 mg single oral dose, fasting
recorded_endpoint: AUC(0-t)
Write the quantity with the unit trailing the number.

Input line: Which AUC(0-t) is listed for `Oc1ccc(/C=C/c2cc(O)cc(O)c2)cc1` ?
Output line: 480 ng·h/mL

====

test: First in human single ascending dose and food effect PK study of JOTROL, plasma; conditions: both, human, plasma, po, 500 mg, Cmax, resveratrol in plasma, mean; Treatment B: JOTROL 500 mg single oral dose, fasting
recorded_endpoint: Cmax (ng/mL)
Just the number please, in ng/mL, no unit attached.

Input line: Which Cmax is listed for Oc1ccc(/C=C/c2cc(O)cc(O)c2)cc1 [Resveratrol, 3,5,4′-stilbenotriol] ?
Output line: 455

====

test: First in human PK study of JOTROL, urine excretion; type: in vivo; conditions: human, urine, po, 200 mg, resveratrol renal clearance, mean; Treatment A: JOTROL 200 mg single oral dose, fasting; read-out: CLR (converted)
recorded_endpoint: CL renal
Write the quantity with the unit trailing the number.

Input line: Which CL renal is listed for Oc1ccc(/C=C/c2cc(O)cc(O)c2)cc1 [Resveratrol, 3,5,4′-stilbenotriol] ?
Output line: 4.17 mL/min

====

assay: First in human single ascending dose and food effect PK study of JOTROL, plasma; conditions: both, human, plasma, po, 200 mg, T1/2 el, resveratrol in plasma, mean; Treatment A: JOTROL 200 mg single oral dose, fasting
recorded_endpoint: half-life (h)
Just the number please, in h, no unit attached.

Input line: Which half-life is listed for `Oc1ccc(/C=C/c2cc(O)cc(O)c2)cc1` ?
Output line: 1.26

====

test: First in human single ascending dose and food effect PK study of JOTROL, plasma; settings: both, human, plasma, po, 200 mg, AUC0-t, resveratrol in plasma, mean; Treatment A: JOTROL 200 mg single oral dose, fasting
recorded_endpoint: AUC(0-t)

Input line: Which AUC(0-t) is listed for `Oc1ccc(/C=C/c2cc(O)cc(O)c2)cc1` ?
Output line: 149 ng·h/mL

====

test: First in human single ascending dose and food effect PK study of JOTROL, plasma; conditions: both, human, plasma, po, 700 mg
recorded_endpoint: Tmax (h)
Just the number please, in h, no unit attached.

Input line: Which Tmax is listed for `Oc1ccc(/C=C/c2cc(O)cc(O)c2)cc1` ?
Output line: 1.02

====

experiment: First in human single ascending dose and food effect PK study of JOTROL, plasma; details: both, human, plasma, po, 200 mg, AUC0-inf, resveratrol in plasma, mean; Treatment A: JOTROL 200 mg single oral dose, fasting
recorded_endpoint: AUC(0-inf) (ng·h/mL)
Just the number please, in ng·h/mL, no unit attached.

Input line: Which AUC(0-inf) is listed for `Oc1ccc(/C=C/c2cc(O)cc(O)c2)cc1` ?
Output line: 215

====

test: First in human single ascending dose and food effect PK study of JOTROL, plasma; conditions: both, human, plasma, po, 500 mg, Kel, resveratrol in plasma, mean; Treatment D: JOTROL 500 mg single oral dose, fed (high-fat meal)
recorded_endpoint: k el

Input line: Which k el is listed for `Oc1ccc(/C=C/c2cc(O)cc(O)c2)cc1` ?
Output line: 0.000152 s⁻¹

====

Test: First in human single ascending dose and food effect PK study of JOTROL, plasma
Conditions: both, human, plasma, oral
Text: A total of 24 healthy, adult male or female volunteers were included in study part 1. […] A food effect arm was also included as part 2. […] Samples are extracted by a protein precipitation extraction procedure, and the compounds are detected and quantified by tandem mass spectrometry in positive ion mode on an MDS Sciex API 6500+ equipped with a Turbo Ionspray® interface. […]
recorded_endpoint: Tmax

Input line: Which Tmax is listed for `Oc1ccc(/C=C/c2cc(O)cc(O)c2)cc1` ?
Output line: ~1 h

====

test: First in human PK study of JOTROL, urine excretion; assay type: in vivo; details: human, urine, po, 700 mg, resveratrol renal clearance, mean; Treatment C: JOTROL 700 mg single oral dose, fasting; read-out: CLR (converted)
recorded_endpoint: CL renal (mL/min)
Just the number please, in mL/min, no unit attached.

Input line: Which CL renal is listed for `Oc1ccc(/C=C/c2cc(O)cc(O)c2)cc1` ?
Output line: 3.17

====

assay: First in human single ascending dose and food effect PK study of JOTROL, plasma; conditions: both, human, plasma, oral, Mean Cmax, range over doses, metabolite in plasma; increasing JOTROL (resveratrol) doses
recorded_endpoint: Cmax

Input line: Which Cmax is listed for O=S(=O)(O)Oc1cc(O)cc(C=Cc2ccc(O)cc2)c1 [resveratrol-3-sulfate] ?
Output line: 6620 to 23600 ng/mL

====

test: First in human single ascending dose and food effect PK study of JOTROL, plasma; details: both, human, plasma, po, 500 mg, AUC0-t, resveratrol in plasma, mean; Treatment D: JOTROL 500 mg single oral dose, fed (high-fat meal)
recorded_endpoint: AUC(0-t) (ng·h/mL)
Just the number please, in ng·h/mL, no unit attached.

Input line: Which AUC(0-t) is listed for `Oc1ccc(/C=C/c2cc(O)cc(O)c2)cc1` ?
Output line: 306

====

assay: First in human PK study of JOTROL, urine excretion; format: in vivo; details: human, urine, po, 500 mg, resveratrol renal clearance, mean; Treatment B: JOTROL 500 mg single oral dose, fasting; read-out: CLR (converted)
recorded_endpoint: CL renal (mL/min)
Just the number please, in mL/min, no unit attached.

Input line: Which CL renal is listed for `Oc1ccc(/C=C/c2cc(O)cc(O)c2)cc1` ?
Output line: 2.33

====

assay: First in human single ascending dose and food effect PK study of JOTROL, plasma; conditions: both, human, plasma, po, 700 mg, Cmax, resveratrol in plasma, mean; Treatment C: JOTROL 700 mg single oral dose, fasting
recorded_endpoint: Cmax (ng/mL)
Just the number please, in ng/mL, no unit attached.

Input line: Which Cmax is listed for `Oc1ccc(/C=C/c2cc(O)cc(O)c2)cc1` ?
Output line: 805

====

assay: First in human single ascending dose and food effect PK study of JOTROL, plasma; settings: both, human, plasma, po, 700 mg, AUC0-t, resveratrol in plasma, mean; Treatment C: JOTROL 700 mg single oral dose, fasting
recorded_endpoint: AUC(0-t) (ng·h/mL)
Just the number please, in ng·h/mL, no unit attached.

Input line: Which AUC(0-t) is listed for `Oc1ccc(/C=C/c2cc(O)cc(O)c2)cc1` ?
Output line: 886

====

Test: First in human single ascending dose and food effect PK study of JOTROL, plasma
Settings: both, human, plasma, po, 500 mg, T1/2 el, resveratrol in plasma, mean; Treatment B: JOTROL 500 mg single oral dose, fasting
Excerpt: A total of 24 healthy, adult male or female volunteers were included in study part 1. […] A food effect arm was also included as part 2. […] Samples are extracted by a protein precipitation extraction procedure, and the compounds are detected and quantified by tandem mass spectrometry in positive ion mode on an MDS Sciex API 6500+ equipped with a Turbo Ionspray® interface. […]
recorded_endpoint: half-life (h)
Just the number please, in h, no unit attached.

Input line: Which half-life is listed for `Oc1ccc(/C=C/c2cc(O)cc(O)c2)cc1` ?
Output line: 2.74
